Target: neurokinin-1 (NK-1) receptor (Homo sapiens, UniProt P25103)
Construct: a human glioblastoma-astrocytoma cell line that endogenously expresses the neurokinin-1 (NK-1) receptor; endogenous in cells; host or cells: U373 human glioblastoma-astrocytoma cells (membranes)
Sequence (P25103 whole entry): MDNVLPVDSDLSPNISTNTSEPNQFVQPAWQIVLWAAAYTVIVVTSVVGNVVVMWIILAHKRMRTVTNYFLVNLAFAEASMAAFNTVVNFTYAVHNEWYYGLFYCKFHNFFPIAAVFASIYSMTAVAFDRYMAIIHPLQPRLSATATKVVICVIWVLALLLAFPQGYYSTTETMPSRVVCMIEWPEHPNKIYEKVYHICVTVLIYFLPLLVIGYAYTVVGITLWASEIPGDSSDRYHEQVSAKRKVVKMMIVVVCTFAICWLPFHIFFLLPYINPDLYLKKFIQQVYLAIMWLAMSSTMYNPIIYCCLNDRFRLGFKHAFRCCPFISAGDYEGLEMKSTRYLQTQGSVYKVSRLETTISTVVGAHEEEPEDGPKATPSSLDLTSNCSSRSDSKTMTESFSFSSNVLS
Experiment: NK-1 Binding assay ([125I] Substance P competition, U373 cell membranes)
Conditions: Table 1; U373 membranes, [125I] Substance P displacement; read-out: NK-1 IC50
Task for the reader: assign each of the following compounds its reported IC50.

If you can, please state the reported IC50 value of COc1cc(-c2cc(COCC3(c4ccccc4)CCNCC3)cc(C(F)(F)F)c2)ccn1 . 0.01 to 100 nM

If you can, please state the reported IC50 value of FC(F)(F)c1cc(COCC2(c3ccccc3)CCNCC2)cc(-n2nnnc2C(F)(F)F)c1 . > 300 nM

If you can, please state the reported IC50 value of CN1CCC(COCc2cc(-c3ccncc3)cc(C(F)(F)F)c2)(c2ccccc2)CC1 . 0.01 to 100 nM

If you can, please state the reported IC50 value of FC(F)(F)c1cc(COCC2(c3ccccc3)CCNCC2)cc(-c2ccncc2)c1 . 0.01 to 100 nM

If you can, please state the reported IC50 value of FC(F)(F)Oc1ccc(-c2cc(COCC3(c4ccccc4)CCNCC3)cc(C(F)(F)F)c2)cc1 . 0.01 to 100 nM

If you can, please state the reported IC50 value of CC(C)(C)c1ccc(-c2cc(COCC3(c4ccccc4)CCNCC3)cc(C(F)(F)F)c2)cc1 . > 300 nM

If you can, please state the reported IC50 value of N#Cc1ccc(-c2cc(COCC3(c4ccc(F)cc4)CCNCC3)cc(C(F)(F)F)c2)cc1 . 0.01 to 100 nM

If you can, please state the reported IC50 value of Cn1cncc1-c1cc(COCC2(c3ccccc3)CCNCC2)cc(C(F)(F)F)c1 . 100 to 300 nM

If you can, please state the reported IC50 value of FC(F)(F)c1cc(COCC2(c3ccccc3)CCNCC2)cc(-c2ccccc2C(F)(F)F)c1 . > 300 nM

If you can, please state the reported IC50 value of FC(F)(F)c1cc(COCC2(c3ccccc3)CCNCC2)cc(-c2ccncc2Cl)c1 . 0.01 to 100 nM

If you can, please state the reported IC50 value of FC(F)(F)c1cc(COCC2(c3ccccc3)CCNCC2)cc(-c2cccc3ccccc23)c1 . > 300 nM

If you can, please state the reported IC50 value of COc1ccc(-n2nnnc2C)cc1COCC1(c2ccccc2)CCNCC1 . 0.01 to 100 nM

If you can, please state the reported IC50 value of FC(F)(F)c1cc(COCC2(c3ccccc3)CCNCC2)cc(-c2cccnc2Cl)c1 . 0.01 to 100 nM

If you can, please state the reported IC50 value of Cn1nnc(-c2cc(COCC3(c4ccccc4)CCNCC3)cc(C(F)(F)F)c2)n1 . 0.01 to 100 nM

If you can, please state the reported IC50 value of FC(F)(F)c1cc(COCC2(c3ccccc3)CCNCC2)cc(-c2cc(C(F)(F)F)cc(C(F)(F)F)c2)c1 . 100 to 300 nM

----------
Molecular target: neurokinin-1 (NK-1) receptor (Homo sapiens)
Construct: a human glioblastoma-astrocytoma cell line that endogenously expresses the neurokinin-1 (NK-1) receptor; endogenous in cells; host or cells: U373 human glioblastoma-astrocytoma cells (membranes)
Assay: NK-1 Binding assay ([125I] Substance P competition, U373 cell membranes)
Details: Table 2; U373 membranes, [125I] Substance P displacement; read-out: NK-1 IC50
readout type: IC50

If you can, please state the reported IC50 value of CCCOc1cccc(-c2cc(COCC3(c4ccccc4)CCNCC3)cc(C(F)(F)F)c2)c1 . > 300 nM

If you can, please state the reported IC50 value of Cc1cc(COCC2(c3ccccc3)CCNCC2)cc(-c2ccc(C#N)cc2)c1 . 0.01 to 100 nM

If you can, please state the reported IC50 value of N#Cc1ccc(-c2cc(COCC3(c4ccccc4)CCN(Cc4ccccc4)CC3)cc(C(F)(F)F)c2)cc1 . 0.01 to 100 nM

If you can, please state the reported IC50 value of CCc1ccccc1-c1cc(COCC2(c3ccccc3)CCNCC2)cc(C(F)(F)F)c1 . > 300 nM

If you can, please state the reported IC50 value of CCN1CCC(COCc2cc(-c3ccc(C#N)cc3)cc(C(F)(F)F)c2)(c2ccccc2)CC1 . 0.01 to 100 nM

The measured values listed here are drawn from patent US20070249607A1.
